- Experiment summary: in vitro
- Condition set: human, microsomes
Label 1.0 when half-life is at or above 4 min; otherwise label 0.0.

Structure string	Category
CCCN(CCC)c1c(CC)nc(-c2c(C)cc(C)cc2OC)n(CC)c1=O	0.0
CCCN(CCC)c1c(C)nc(-c2c(OC)cccc2OC)nc1O	1.0
CCCN(CCC)c1c(C)nc(-c2c(C)cc(C)cc2C)n(CCN2CCCC2)c1=O	1.0
CCCN(CCC)c1c(C)nc(-c2ccc(Cl)cc2Cl)n(CC)c1=O	0.0
CCCN(CCC)c1c(C)nc(-c2c(C)cc(C)cc2C)n(CC)c1=O	0.0
CCCN(CCC)c1c(C)nc(-c2c(OC)cccc2OC(F)F)nc1O	1.0
